The values you see were collected from the nanobody polyreactivity screen of Harvey et al. (2022).

# assay_name: yeast display, Sf9 membrane polyspecificity reagent, FACS + sequencing; frameworks hold sequencing errors
assay_metric: polyreactivity (PSR sort gate)

QVQLVESGGGLVQAGGSLRLSCAASGSTFRRYAMGWYRQAPGKERELVAGISYSGGRTYYADSVKGRFTISRDNAKNTVYLQMNSLKPEDTAVYYCAAKSFPSVRHHENYYWGQGTQVTVSS; high polyreactivity
QVQHVESGGGLVQAGGSLRLSCAASGSIFGQYAMGWDRQSPGKERELVAAISTSGGSTYYADSVKGRFTISRDNAKYSVYLQMYSLKPEDTAVYYCNAFNYGTQTYGYWGQGTQVTVSS; high polyreactivity

====

# assay_name: yeast display, Sf9 membrane polyspecificity reagent, FACS + sequencing; frameworks hold sequencing errors
assay_metric: polyreactivity (PSR sort gate)

Example sequences with recorded polyreactivity (PSR sort gate):
QVQLVESGGGLVQAGGSLRLSCAASGLIFVGYAMGWYRQAPGKERELVAAITSGGSTKYADSVKGRFTISRDNAKNTVYLQMNSLKPEDTAVYYCAASGWRNWWSARNYYWGQGTLVTVSS; low polyreactivity
QVQLVESGGGLVQAGGSLRLSCAASGLIFAGYSMGWYRLAPGKERELVAAITWRGGRTYADSVKGRFTISRDNAKNTVYLQMNSLKPEDTAVYYCAVRRWGTSFVEDDYWGQGTQVTVSS; low polyreactivity
QVQLVESGGGLVQAGGSLRLSCAASGFIFYDYAMGWNRQAPGKERELVAAISSGGSTNYADSVKGRFTISRDNAKNTVYLQMNSLKPEDTAVYFCAADDRSYASWKRDYDYWGQGTQVTVSS; low polyreactivity
QVQLVESGGGLVQAGGSLRLSCAASGLNFIRYAMGWYRPAPGKERELVAAISWPGGNTYYADSVKGRFTISRDNAKNTVYLQMISQKPEDTAVYYCAAVGTWQHRSYGYWGQGTQVTVSS; high polyreactivity

// next item, polyreactivity (PSR sort gate) requested
Recorded polyreactivity (PSR sort gate) for QVQLVESGGGLVQAGGSLRLSCAPSGFIFSRYAMGWYRQAPGKERELVATITSSGGSTYYADSVKGRFTISRDNAKNTVYLQMNSLKPEDTAVYYCNAKISIRWHYGYYYWGQGTQVTVSS , please?
high polyreactivity

====

# assay_name: yeast display, Sf9 membrane polyspecificity reagent, FACS + sequencing; frameworks hold sequencing errors
assay_metric: polyreactivity (PSR sort gate)

QVQIVESGGGLVQAGGSLRLSCAASGSTFKRYAMGWYRQAPGKERELVAAITWRGGSTYYADSVKGRFTISRDNAKNTVYLQMNSLKPEDTAVYYCAARANYFGWPKSYYYWGQGTQVTVSS; high polyreactivity
QVQLVESGGGLVQAGGSLRLSCAASGFTFKAYAMGWYRQAPGKERELVAAITRSGGRTYYADSVKGRFTISRDNAKNTVYLQMNSLKPEDTAVYYCARDYTRYAYDHWGQGTQVTVSS; high polyreactivity
QVQLVESGGGLVQAGGSLRLSCAASGRIITYYAMGWYRQAPGKERELVAAISRTGGTTYYADSVKGRFTISRDNAKNTVYLQMNSLKPEDTAVYYWNAVKAPYLRYDYWGQGTQVTVSS; high polyreactivity
QVQLVESGGGLVQAGGSLRLSCAASGSTFDGNAMGWYRQAPGKERELVAAITRAGRTSYADSVKGRFTISRDNAKNTVYLQMNSLKPEDTAVYYCAKGGYDYWGQGTQVTVSS; low polyreactivity
QVQLVESGGGLVQAGGSLLLSCAASGSIYVNNAMGWYRQAPGKERELVAAISRSGGSTYYADSVKGRFTISRDSAKKTVYLQMNSLKPEDTAVYYCATVHRSSTPPEFNYSGQGTQVTVSS; high polyreactivity

Recorded polyreactivity (PSR sort gate) for QVQLVESGGGLVQAGGSLRLSCAASGSTFGWYAMGWYRQAPGKERDFVASITSSTGSTYYADSVKGRFTISRDNAKNTVYLQMYSLKPEDTAVYYCAASYVYTFLSYLLEYDYWGQGTQVTVSS , please?
high polyreactivity

Same question, QVQLVESGGGLVQAGGSLRLSCAASGRTFARYAMGSYRQAPGKERELDAAITSGGSTNYADSVKGRFTISRDNAKNTVYLQMNSLKPEDTAVYYCNARRRAPKGPIPAGNYWGQGTQVTVSS this time
high polyreactivity

Same question, QVQLVESGGGLVQAGGSLRLSCAASGNIFAWYAMGWYRQAPGKERELVADISSRGGSTYYADSVKGRFTISRDNAKNTVYLQMNRLKPEDTAVYYCAAVWYWTQDYDYWGQGTQVTVSS this time
low polyreactivity

Same question, QVLLVESGGGLVQAGGSLRLSCAASGSIFIANAKGWYRQAPGKERELGAAIDSGGSTNYADSVKGRFTISRDNAKYTVYLQMNSLKPEDTAVYYCAADGTLTAPGGDYWGQGTQVTVSS this time
high polyreactivity

Same question, QVQLVESGGGLVQAGGSLRLSCAASGSIFYYYVMGWYRQAPGKEREFVAAISWGGDSTYYADSVKGRFTISRDNAKNTVYLQMNSLKPEDTAVYYCAAVRYNSRVSTTPSEMYYWGQGTQVTVSS this time
low polyreactivity

Same question, QVQLVESGGGLVQAGGSLRLSCAASGRIYYNAMGWYRQAPGKEGELVAAISGSGTRTYYADSVKGRFTISRDNAKTTVYLQMNSQKPEDTAVYYCARYYSHYSTYDYVRYGYWGQGTQVTVSS this time
high polyreactivity
